- System: M. tuberculosis H37Rv-GFP
- protocol-summary: microbe, parasite or virus in culture
- Format: cell-based
- run-conditions: Mycobacterium tuberculosis, read-out: QUM Confirm % Inhibition 2 uM
Measured inhibition at 2 µM accompanies every entry in the list below.
observation-type: inhibition at 2 µM

compound | result
CC(C)c1ccc(CNC(=O)c2cc([N+](=O)[O-])cc([N+](=O)[O-])c2)cc1 [IPK 000 027 78] | 97.5%
c1ccc(COc2ccc(NCCc3ccncc3)cc2)cc1 [IPK 000 016 00] | 48.6%
CCOC(=O)/N=C(\NC(C)=O)c1cccc(Cl)c1 [IPK 000 033 61] | 37.6%
N#CC(C#N)=NNc1ccc(I)cc1 [IPK 000 007 31] | 33%
COc1cccc(OCCNC(=O)c2cc([N+](=O)[O-])cc([N+](=O)[O-])c2)c1 [IPK 000 027 77] | 96.8%

###

- Test system: Raw264.7 cells
- run-conditions: mouse, 5 days, 2 uM
observation-type: QIM Confirm CellNb 2 uM

compound | numeric-readout
Cc1cccc(/C=N/NC(=O)c2ccncc2)c1 | 99.5
CCOC(=O)/C=C/C(=O)NNC(=O)c1cccs1 | 101.3
N#Cc1cc(Br)c([N+](=O)[O-])cc1C#N | 82.5
COc1cccc(C2Nc3ccc(C(=O)O)cc3C3C=CCC32)c1 (centres unmarked) | 98.3
CCCCN(CCCC)C(=O)c1ccc(C(C)(C)C)cc1 | 99.7

###

- Tested on: Raw264.7 cells
- protocol-summary: Cell number (CellNb) from image analysis of the phenotypic cell-based assay
- run-conditions: confirmation, 0.2 uM
observation-type: QIM Confirm CellNb 0.2 uM

molecule | numeric-readout
O=C(N/N=C/c1cccc(Br)c1)C1C2CC/C=C\CCC21 (stereo not drawn) [IPK 000 010 06] | 412.0
O=C(Oc1cccc2ncccc12)c1ccccc1F [IPK 000 018 65] | 256.6
CCCSc1nnc(-c2ccc(Cl)cc2Cl)o1 [IPK 000 024 43] | 352.1

###

Measured inhibition at 2 µM accompanies every entry in the list below.
- Tested on: M. tuberculosis H37Rv-GFP
- protocol-summary: microbe, parasite or virus in culture
- Format: cell-based
- run-conditions: Mycobacterium tuberculosis, read-out: QUM Confirm % Inhibition 2 uM

molecule | assay-target | inhibition at 2 µM / %
O=C(N/N=C/c1cccc(Br)c1)C1C2CC/C=C\CCC21 (stereo not drawn) [IPK 000 010 06] | M. tuberculosis H37Rv-GFP | 43.1
COc1ccccc1OCCNC(=O)c1cc([N+](=O)[O-])cc([N+](=O)[O-])c1 [IPK 000 027 74] | M. tuberculosis H37Rv-GFP | 97.5
Cc1nn(-c2ccccc2)c(Cl)c1/C=N/NC(=O)c1ccccn1 [IPK 000 001 90] | M. tuberculosis H37Rv-GFP | 29.4
O=C(NCCOc1ccccc1Cl)c1cc([N+](=O)[O-])cc([N+](=O)[O-])c1 [IPK 000 027 72] | M. tuberculosis H37Rv-GFP | 97.6
Clc1ccc(Nc2nc3nonc3nc2Nc2ccc(Cl)cc2)cc1 [IPK 000 003 90] | M. tuberculosis H37Rv-GFP | 68.8
C/C(=N\NC(N)=S)c1ccc(Cl)cc1 [IPK 000 002 17] | M. tuberculosis H37Rv-GFP | 67.4
CC1=NN(C(=O)c2ccncc2)C(O)(C(F)(F)F)C1 (stereo not drawn) [IPK 000 009 78] | M. tuberculosis H37Rv-GFP | 61.1
O=C(N/N=C/c1ccccc1O)c1ccncc1 [IPK 000 041 45] | M. tuberculosis H37Rv-GFP | 47.4
O=C(Oc1cccc2ncccc12)c1ccccc1F [IPK 000 018 65] | M. tuberculosis H37Rv-GFP | 54
COc1ccc(OCCNC(=O)c2cc([N+](=O)[O-])cc([N+](=O)[O-])c2)cc1 [IPK 000 028 35] | M. tuberculosis H37Rv-GFP | 98.1
O=C1c2ccccc2-c2nc3nonc3nc21 [IPK 000 011 19] | M. tuberculosis H37Rv-GFP | 93.2
O=C(N/N=C\c1ccc(Cl)s1)c1ccncc1 [IPK 000 009 42] | M. tuberculosis H37Rv-GFP | 50.3
O=C(N/N=C/c1cccc2ccccc12)c1ccncc1 [IPK 000 041 46] | M. tuberculosis H37Rv-GFP | 81.4
CCCCS(=O)(=O)/C=C\C=C\S(=O)(=O)CCCC [IPK 000 036 07] | M. tuberculosis H37Rv-GFP | 47.9
O=C(Oc1cccc2cccnc12)c1cccc([N+](=O)[O-])c1 [IPK 000 018 66] | M. tuberculosis H37Rv-GFP | 72
O=[N+]([O-])c1ccc(/C=N/c2ccccc2O)cc1 [IPK 000 040 14] | M. tuberculosis H37Rv-GFP | 46.8
O=C(NN=C1CCCCC1)c1ccncc1 [IPK 000 013 72] | M. tuberculosis H37Rv-GFP | 73.9
O=C(NCCOCc1ccccc1)c1cc([N+](=O)[O-])cc([N+](=O)[O-])c1 [IPK 000 027 91] | M. tuberculosis H37Rv-GFP | 97.6
CN1CCN(c2nc(Nc3ccc(OC(F)(F)F)cc3)nc(OCC(F)(F)F)n2)CC1 [IPK 000 008 12] | M. tuberculosis H37Rv-GFP | 39.7
CCCSc1nnc(-c2ccc(Cl)cc2Cl)o1 [IPK 000 024 43] | M. tuberculosis H37Rv-GFP | 40.1
O=C(N/N=C/c1ccco1)c1ccncc1 [IPK 000 013 67] | M. tuberculosis H37Rv-GFP | 90.2
Clc1ccc(Nc2nc3nonc3nc2Nc2ccc(Cl)c(Cl)c2)cc1Cl [IPK 000 003 89] | M. tuberculosis H37Rv-GFP | 76.5
CCOC(=O)c1c(CSc2ccccc2)n(Cc2ccccc2)c2ccc(O)c(CN(C)C)c12 [IPK 000 016 05] | M. tuberculosis H37Rv-GFP | 42.5
C/C(=N/NC(=O)c1ccncc1)c1cccs1 [IPK 000 003 01] | M. tuberculosis H37Rv-GFP | 82.8
Brc1ccc(/C=N/Nc2nc(N3CCOCC3)nc(N3CCOCC3)n2)o1 [IPK 000 011 65] | M. tuberculosis H37Rv-GFP | 40.6
O=C(NN=C1CCCC1)c1ccncc1 [IPK 000 013 70] | M. tuberculosis H37Rv-GFP | 79.4
O=C(NN1C(=O)c2ccc(Br)cc2C1=O)c1ccncc1 [IPK 000 008 02] | M. tuberculosis H37Rv-GFP | 31.9
O=C(NCc1ccc2c(c1)OCO2)c1cc([N+](=O)[O-])cc([N+](=O)[O-])c1 [IPK 000 027 85] | M. tuberculosis H37Rv-GFP | 97.9
CC(C)(C)C(=O)Nc1ccccc1C(=O)N1CCOCC1 [IPK 000 021 87] | M. tuberculosis H37Rv-GFP | 42.9
O=C(CSc1cccs1)Nc1nccs1 [IPK 000 002 87] | M. tuberculosis H37Rv-GFP | 36.1
Fc1ccc(Nc2nc3nonc3nc2Nc2ccc(F)cc2)cc1 [IPK 000 003 91] | M. tuberculosis H37Rv-GFP | 41.4
O=C(N/N=C/c1cc(Br)c(Br)o1)c1ccncc1 [IPK 000 009 41] | M. tuberculosis H37Rv-GFP | 59.6
O=C(Nc1ccc(Oc2ccccc2)cc1)C1CCCO1 (stereo not drawn) [IPK 000 033 16] | M. tuberculosis H37Rv-GFP | 42
O=C1Nc2ccccc2/C1=N/NC(=O)c1ccncc1 [IPK 000 006 35] | M. tuberculosis H37Rv-GFP | 41.9
O=C(N/N=C/C=C/c1ccccc1)c1ccncc1 [IPK 000 013 68] | M. tuberculosis H37Rv-GFP | 77.1
N#Cc1ccccc1NC(=O)CSc1nc2ccccc2s1 [IPK 000 018 97] | M. tuberculosis H37Rv-GFP | 33.9

Source: patent US8785452B2
